target: CDK2/CycA (Homo sapiens (Human)); experiment: LANCE Ultra kinase activity inhibition assay, CDK2/CycA; type: biochemical; settings: ATP 10 μM, highest compound concentration 10 μM
Consider the cut-off 3 µM. If the recorded IC50 is strictly smaller, the label is T; if not, the label is F.

Please determine if N[C@H]1CC[C@H](Nc2cc(CC3CCC3)nc3ccnn23)C1 [Compound Z-50] is below 3 µM in terms of IC50.
F

Please determine if CC(c1cc(NC2CCN(N)C2)n2ncc(Cl)c2n1)C1CC1 (stereo not shown) [Compound Z-48] is below 3 µM in terms of IC50.
T

Please determine if CC(c1cc(NC2CCN(N)C2)n2ncc(Cl)c2n1)C1CC1 (stereo not shown) [Compound Z-47] is below 3 µM in terms of IC50.
T

Please determine if CC[C@@H](c1cc(N[C@H]2CC[C@H](N)C2)n2nccc2n1)C1CC1 [Compound Z-28-P1] is below 3 µM in terms of IC50.
F

Please determine if Cc1cnn2c(N[C@H]3CC[C@H](N)C3)cc(C(C3CC3)C3CC3)nc12 [Compound Z-9] is below 3 µM in terms of IC50.
T

Please determine if N[C@H]1CC[C@H](Nc2cc(C(C3CC3)C3CC3)nc3c(F)cnn23)C1 [Compound Z-15] is below 3 µM in terms of IC50.
T

Please determine if CCC(c1cc(N[C@H]2CC[C@H](NC(C)=N)C2)n2nccc2n1)C1CC1 (stereo partly shown) [Compound Z-69] is below 3 µM in terms of IC50.
F

Please determine if CC(c1cc(N[C@H]2C[C@H](N)C2)n2nccc2n1)C1CC1 (stereo partly shown) [Compound Z-62] is below 3 µM in terms of IC50.
F

Please determine if C[C@@H](c1cc(N[C@H]2CC[C@H](N)C2)n2nccc2n1)C1(C)CC1 [Compound Z-27-P1] is below 3 µM in terms of IC50.
F

Please determine if N[C@H]1CC[C@H](Nc2cc(CC3CC3)nc3ccnn23)C1 [Compound Z-3] is below 3 µM in terms of IC50.
F

Please determine if CC(=N)N[C@H]1CC[C@H](Nc2cc(C(C)C3CC3)nc3c(Cl)cnn23)C1 (stereo partly shown) [Compound Z-64] is below 3 µM in terms of IC50.
F

Please determine if CC(c1cc(N[C@H]2CC[C@H](NC(=N)N)C2)n2ncc(Cl)c2n1)C1CC1 (stereo partly shown) [Compound Z-65] is below 3 µM in terms of IC50.
T

Please determine if Cc1cnn2c(N[C@H]3CC[C@H](N)C3)cc([C@@H](C)C3(C)CC3)nc12 [Compound Z-26-P2] is below 3 µM in terms of IC50.
F

Please determine if CC1(Cc2cc(N[C@H]3CC[C@H](N)C3)n3ncc(Cl)c3n2)CC1 [Compound Z-29] is below 3 µM in terms of IC50.
T

Please determine if CC(c1cc(N[C@H]2C[C@@H](N)C2)n2nccc2n1)C1CC1 (stereo partly shown) [Compound Z-74] is below 3 µM in terms of IC50.
F

Please determine if CCc1cnn2c(N[C@H]3CC[C@H](N)C3)cc(C(C3CC3)C3CC3)nc12 [Compound Z-16] is below 3 µM in terms of IC50.
T

Please determine if NN1CCC(Nc2cc(C(C3CC3)C3CC3)nc3ccnn23)C1 (stereo not shown) [Compound Z-59] is below 3 µM in terms of IC50.
F

Please determine if CC[C@H](c1cc(N[C@H]2CC[C@H](N)C2)n2ncc(C)c2n1)C1CC1 [Compound Z-30-P1] is below 3 µM in terms of IC50.
T

Please determine if CCC(c1cc(N[C@H]2CC[C@H](N)C2)n2ncc(C)c2n1)C1CC1 (stereo partly shown) [Compound Z-30] is below 3 µM in terms of IC50.
T

Please determine if N[C@H]1CC[C@H](Nc2cc(C(C3CC3)C3CC3)nc3ccnn23)C1 [Compound Z-1] is below 3 µM in terms of IC50.
F

Please determine if CC(C)(c1cc(N[C@H]2CC[C@H](N)C2)n2ncc(Cl)c2n1)C1CC1 [Compound Z-35] is below 3 µM in terms of IC50.
T

Please determine if C=CCC(C)(C)c1cc(N[C@H]2CC[C@H](N)C2)n2nccc2n1 [Compound Z-57] is below 3 µM in terms of IC50.
F

Please determine if CC(=N)N[C@H]1CC[C@H](Nc2cc(C(C3CC3)C3CC3)nc3c(C(F)(F)F)cnn23)C1 [Compound Z-68] is below 3 µM in terms of IC50.
F

Please determine if CC(c1cc(N[C@H]2CC[C@H](N)C2)n2nccc2n1)C1CCCC1 (stereo partly shown) [Compound Z-13] is below 3 µM in terms of IC50.
F

Please determine if CC(=N)N[C@H]1CC[C@H](Nc2cc(C(C3CC3)C3CC3)nc3c(F)cnn23)C1 [Compound Z-73] is below 3 µM in terms of IC50.
F

Please determine if N[C@H]1CC[C@H](Nc2cc(C(C3CC3)C3CC3)nc3c(Cl)cnn23)C1 [Compound Z-2] is below 3 µM in terms of IC50.
T

Please determine if COC[C@H](c1cc(N[C@H]2CC[C@H](N)C2)n2nccc2n1)C1CC1 [Compound Z-44] is below 3 µM in terms of IC50.
F

Please determine if CC(c1cc(N[C@H]2CC[C@H](N)CC2)n2nccc2n1)C1CC1 (stereo partly shown) [Compound Z-21] is below 3 µM in terms of IC50.
F

Please determine if N[C@H]1CC[C@H](Nc2cc(C(F)C3CCC3)nc3ccnn23)C1 (stereo partly shown) [Compound Z-70] is below 3 µM in terms of IC50.
F

Please determine if C[C@H](c1cc(N[C@H]2C[C@H](N)C2)n2nccc2n1)C1CC1 [Compound Z-62-P1] is below 3 µM in terms of IC50.
T

Please determine if N[C@H]1CC[C@H](Nc2cc([C@H](F)C3CCC3)nc3ccnn23)C1 [Compound Z-41-P2] is below 3 µM in terms of IC50.
F

Please determine if CC(C)(c1cc(N[C@H]2CC[C@H](N)C2)n2ncc(F)c2n1)C1CC1 [Compound Z-36] is below 3 µM in terms of IC50.
T

Please determine if CC1(Cc2cc(N[C@H]3CC[C@H](N)C3)n3nccc3n2)CC1 [Compound Z-17] is below 3 µM in terms of IC50.
F

* * *

target: CDK9/CycT (Homo sapiens (Human), UniProt P50750); assay: LANCE Ultra kinase activity inhibition assay, CDK9/CycT; assay type: biochemical; conditions: ATP 10 μM, highest compound concentration 1 μM
Sequence (P50750 whole entry): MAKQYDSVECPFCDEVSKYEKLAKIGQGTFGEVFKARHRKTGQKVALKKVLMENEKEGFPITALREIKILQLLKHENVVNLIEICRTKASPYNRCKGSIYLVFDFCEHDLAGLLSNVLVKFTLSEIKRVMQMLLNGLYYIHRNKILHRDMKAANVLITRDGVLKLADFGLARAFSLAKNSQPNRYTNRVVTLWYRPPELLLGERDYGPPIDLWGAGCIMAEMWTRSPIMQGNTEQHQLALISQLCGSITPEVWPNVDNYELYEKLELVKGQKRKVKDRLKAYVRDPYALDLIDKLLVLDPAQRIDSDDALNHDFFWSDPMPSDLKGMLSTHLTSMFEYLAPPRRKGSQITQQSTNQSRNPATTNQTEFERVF
Sequence (O60563 whole entry partner): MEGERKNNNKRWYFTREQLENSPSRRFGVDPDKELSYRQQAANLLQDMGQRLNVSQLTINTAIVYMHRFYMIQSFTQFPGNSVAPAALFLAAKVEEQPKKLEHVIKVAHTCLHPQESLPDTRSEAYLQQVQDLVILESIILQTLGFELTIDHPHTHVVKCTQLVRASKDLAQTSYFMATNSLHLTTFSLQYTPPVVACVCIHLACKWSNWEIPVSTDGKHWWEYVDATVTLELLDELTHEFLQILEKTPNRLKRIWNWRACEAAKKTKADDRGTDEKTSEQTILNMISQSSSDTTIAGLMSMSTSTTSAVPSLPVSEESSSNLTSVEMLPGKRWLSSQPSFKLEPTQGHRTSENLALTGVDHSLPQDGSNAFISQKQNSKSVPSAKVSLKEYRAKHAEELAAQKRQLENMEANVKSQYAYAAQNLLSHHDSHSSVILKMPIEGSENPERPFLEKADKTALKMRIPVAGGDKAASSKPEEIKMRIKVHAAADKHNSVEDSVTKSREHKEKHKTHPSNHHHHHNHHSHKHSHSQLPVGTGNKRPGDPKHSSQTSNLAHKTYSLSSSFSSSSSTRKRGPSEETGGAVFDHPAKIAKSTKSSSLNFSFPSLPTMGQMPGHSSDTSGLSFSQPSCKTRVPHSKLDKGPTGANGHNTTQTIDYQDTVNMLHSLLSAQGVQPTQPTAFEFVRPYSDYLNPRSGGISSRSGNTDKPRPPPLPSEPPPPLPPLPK
property_label: IC50 (µM)
Please reply with the bare figure in µM and do not write the unit itself.

Given the compound C[C@H](c1cc(N[C@H]2C[C@H](N)C2)n2nccc2n1)C1CC1 [Compound Z-62-P1] , what is its reported IC50?
0.01

Given the compound "C=CC(C)(C)c1cc(N[C@H]2CC[C@H](N)C2)n2ncc(F)c2n1" , what is its reported IC50?
0.02

Given the compound "Cc1cnn2c(N[C@H]3CC[C@H](N)C3)cc(C(C3CC3)C3CC3)nc12" , what is its reported IC50?
0.008

Given the compound "N[C@H]1CC[C@H](Nc2cc(C(C3CC3)C3CC3)nc3ccnn23)C1" , what is its reported IC50?
0.018

Given the compound "CC(=N)N[C@H]1CC[C@H](Nc2cc(C(C3CC3)C3CC3)nc3c(F)cnn23)C1" , what is its reported IC50?
0.018

Given the compound CC(c1cc(N[C@H]2CC[C@H](N)C2)n2nccc2n1)C1(C)CC1 (some centres unmarked) , what is its reported IC50?
0.009

Given the compound Cc1cnn2c(N[C@H]3CC[C@H](N)C3)cc(C(C)C3(C)CC3)nc12 (some centres unmarked) , what is its reported IC50?
0.026

Given the compound "Cc1cnn2c(N[C@H]3CC[C@H](N)C3)cc(C(C)(C)C3CCC3)nc12" , what is its reported IC50?
0.048

Given the compound C[C@@H](c1cc(N[C@H]2CC[C@H](N)C2)n2nccc2n1)C1CCC1 [Compound Z-11-P2] , what is its reported IC50?
0.03

Given the compound Cc1cnn2c(N[C@H]3CC[C@H](N)C3)cc([C@@H](C)C3(C)CC3)nc12 [Compound Z-26-P2] , what is its reported IC50?
0.078

Given the compound "N[C@H]1CC[C@H](Nc2cc(CC3CC3)nc3c(Cl)cnn23)C1" , what is its reported IC50?
0.015

Given the compound "CC(C)(c1cc(N[C@H]2CC[C@H](N)C2)n2nccc2n1)C1CC1" , what is its reported IC50?
0.02

Given the compound "C=CCC(C)(C)c1cc(N[C@H]2CC[C@H](N)C2)n2nccc2n1" , what is its reported IC50?
0.058

Given the compound Cc1cnn2c(N[C@H]3CC[C@H](N)C3)cc(C(C)C3CCC3)nc12 (some centres unmarked) , what is its reported IC50?
0.017

Given the compound N[C@H]1CC[C@H](Nc2cc(C(F)C3CCCC3)nc3ccnn23)C1 (some centres unmarked) , what is its reported IC50?
0.022

Given the compound CC(c1cc(N[C@H]2CC[C@H](N)C2)n2nccc2n1)C1CCC1 (some centres unmarked) , what is its reported IC50?
0.022

Given the compound C[C@@H](c1cc(N[C@H]2C[C@H](N)C2)n2nccc2n1)C1CC1 [Compound Z-62-P2] , what is its reported IC50?
0.024
